# system.name: PAX6 PD G72S (human, UniProt P26367 4-136, G72S)
# Sequence (P26367 4-136 G72S): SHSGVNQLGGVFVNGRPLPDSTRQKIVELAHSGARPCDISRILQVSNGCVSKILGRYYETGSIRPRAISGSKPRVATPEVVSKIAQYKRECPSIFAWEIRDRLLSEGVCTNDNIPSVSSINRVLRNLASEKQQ
# assay.notes: ITC; ITC (iTC200) at 25 °C in buffer C (composition not given; protein stored in 25 mM Hepes pH 7.5, 150 mM NaCl, 5 mM b-ME); 20 uM protein in cell, 200 uM DNA in syringe, one-site model
# cond: protein: recombinant; 5' overhang 2 nt on each strand (AA/TT), 24 bp
experimental.endpoint: pKd
The quantity pKd is defined as the negative base-10 logarithm of the molar concentration.

# input Returns the measured pKd for the input binder. Input: P6B (dsDNA) DNA 1: AAGCATTTTCACGCATGAGTGCACAG DNA 2: TTCTGTGCACTCATGCGTGAAAATGC
# output 5.92

Data origin: paper PMC7046147
